Record form. Attribute: pIC50. Fill in for each entry.
# Assay System: human recombinant COX-2 (Homo sapiens, UniProt P35354)
# Sequence (P35354 18-604): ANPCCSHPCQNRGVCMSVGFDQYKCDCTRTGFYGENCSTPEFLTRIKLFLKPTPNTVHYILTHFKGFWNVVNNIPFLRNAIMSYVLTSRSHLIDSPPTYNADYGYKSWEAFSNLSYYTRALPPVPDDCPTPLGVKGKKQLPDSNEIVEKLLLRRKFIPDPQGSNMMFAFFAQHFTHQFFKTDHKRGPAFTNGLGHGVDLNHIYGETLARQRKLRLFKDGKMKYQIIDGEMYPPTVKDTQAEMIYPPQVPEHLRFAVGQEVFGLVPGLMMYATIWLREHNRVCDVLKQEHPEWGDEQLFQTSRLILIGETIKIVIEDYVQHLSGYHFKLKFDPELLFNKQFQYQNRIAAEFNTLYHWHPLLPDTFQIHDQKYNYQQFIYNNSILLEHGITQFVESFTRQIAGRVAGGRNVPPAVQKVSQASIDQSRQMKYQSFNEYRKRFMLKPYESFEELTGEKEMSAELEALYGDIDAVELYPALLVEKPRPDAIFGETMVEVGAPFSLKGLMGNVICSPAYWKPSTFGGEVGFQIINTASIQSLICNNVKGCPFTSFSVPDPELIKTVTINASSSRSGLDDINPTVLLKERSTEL
# Test Summary: COX-2 enzyme inhibition (ADHP fluorescence)
# Condition: human recombinant COX-2, 15 min incubation
Scale: negative log10 of molar concentration, which is what pIC50 denotes.

[ask] pIC50 lookup needed for [2H]C([2H])([2H])c1cc2c(c(C([2H])([2H])[2H])c1Br)C=C(C(=O)O)C(C(F)(F)F)O2 (stereo not drawn) , thanks.
[reply] 7.17

[ask] pIC50 lookup needed for [2H]C([2H])([2H])c1c(Br)c2c(c(C([2H])([2H])[2H])c1Br)C=C(C(=O)O)C(C(F)(F)F)O2 (stereo not drawn) , thanks.
[reply] 7.08

[ask] pIC50 lookup needed for [2H]C([2H])([2H])c1cc(Br)cc2c1OC(C(F)(F)F)C(C(=O)O)=C2 (stereo not drawn) , thanks.
[reply] 7.43

----------
# Test Summary: Test on pharmacokinetics and bioavailability of rats
# Type: in vivo, SD rats
# Condition: rat, plasma; male SD rats, single dose 2.5 mg/kg, oral administration; read-out: Cmax
Parameter Measured: Cmax (ng/mL)
Report the figure in ng/mL without appending any unit label.

[ask] Cmax lookup needed for [2H]C([2H])([2H])c1cc2c(c(C([2H])([2H])[2H])c1)OC(C(F)(F)F)C(C(=O)O)=C2 (stereo not drawn) , thanks.
[reply] 4400

[ask] Cmax lookup needed for [2H]C([2H])([2H])c1cc(Cl)c2c(c1)C=C(C(=O)O)C(C(F)(F)F)O2 (stereo not drawn) , thanks.
[reply] 11800

[ask] Cmax lookup needed for [2H]C([2H])([2H])c1c(Br)c2c(c(C([2H])([2H])[2H])c1Br)C=C(C(=O)O)C(C(F)(F)F)O2 (stereo not drawn) , thanks.
[reply] 4480

----------
# Test Summary: Test on pharmacokinetics and bioavailability of rats
# Format: in vivo, SD rats
# Condition: rat, plasma; male SD rats, single dose 2.5 mg/kg, oral administration
Parameter Measured: AUC (ng·h/mL)
Report the figure in ng·h/mL without appending any unit label.

[ask] AUC lookup needed for [2H]C([2H])([2H])c1c(Br)c2c(c(C([2H])([2H])[2H])c1Br)C=C(C(=O)O)C(C(F)(F)F)O2 (stereo not shown) [GIBH-1051] , thanks.
[reply] 13000

[ask] AUC lookup needed for [2H]C([2H])([2H])c1cc(Cl)c2c(c1)C=C(C(=O)O)C(C(F)(F)F)O2 (stereo not shown) [GIBH-1018] , thanks.
[reply] 28300

[ask] AUC lookup needed for [2H]C([2H])([2H])c1cc2c(c(C([2H])([2H])[2H])c1)OC(C(F)(F)F)C(C(=O)O)=C2 (stereo not shown) [GIBH-1016] , thanks.
[reply] 4330

[ask] AUC lookup needed for [2H]C([2H])([2H])c1cc(Cl)cc2c1OC(C(F)(F)F)C(C(=O)O)=C2 (stereo not shown) [GIBH-1012] , thanks.
[reply] 38900

----------
# Assay System: ovine COX-1 (Ovis aries, UniProt P05979)
# Sequence (P05979 25-600): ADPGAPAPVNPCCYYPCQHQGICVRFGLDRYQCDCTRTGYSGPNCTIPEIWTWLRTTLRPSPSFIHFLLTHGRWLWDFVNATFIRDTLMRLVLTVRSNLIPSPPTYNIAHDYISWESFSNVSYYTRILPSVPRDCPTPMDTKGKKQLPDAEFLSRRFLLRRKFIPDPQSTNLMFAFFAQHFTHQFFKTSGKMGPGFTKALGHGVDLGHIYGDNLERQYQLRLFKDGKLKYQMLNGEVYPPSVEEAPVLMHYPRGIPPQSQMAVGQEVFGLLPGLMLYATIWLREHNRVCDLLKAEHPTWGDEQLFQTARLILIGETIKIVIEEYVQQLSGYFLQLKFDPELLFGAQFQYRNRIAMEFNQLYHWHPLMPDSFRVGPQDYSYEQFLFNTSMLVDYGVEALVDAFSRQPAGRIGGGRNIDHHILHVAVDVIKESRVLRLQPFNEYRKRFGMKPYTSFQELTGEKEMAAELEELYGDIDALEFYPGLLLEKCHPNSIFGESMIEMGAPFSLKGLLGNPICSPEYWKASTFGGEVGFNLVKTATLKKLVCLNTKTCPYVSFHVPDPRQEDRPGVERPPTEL
# Test Summary: COX-1 enzyme inhibition (ADHP fluorescence)
# Format: biochemical
pIC50: −log10 of the molar value.
Parameter Measured: pIC50

[ask] pIC50 lookup needed for [2H]C([2H])([2H])c1cc2c(c(C([2H])([2H])[2H])c1)OC(C(F)(F)F)C(C(=O)O)=C2 (stereo not shown) , thanks.
[reply] < 4.00

Cited source for all entries: patent US9371305B2
